B1: F1*; the commonest letter at each place (parent)
chain: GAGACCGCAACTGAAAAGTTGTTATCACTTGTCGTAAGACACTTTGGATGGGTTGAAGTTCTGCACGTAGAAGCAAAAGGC

Variants of: B1
experiment-description: fraction ligated after 30 min (ligated reads / total reads); higher = more ligase activity
setup-conditions: with F1*sub RNA substrate (template-directed ligation), 42 °C
measured-parameter: fraction ligated

[[record]]
sequence_data = "GAGACCGCAACTGAAAAGTTGTTTTCACTTGTCGAAAGACACTTTGGATGGGTTGAAGTTCTGCACGTAGAAGCAAAAGGC [A24T T35A]"
recorded_value = 0.808

[[record]]
sequence_data = "GAGACCGCAACTGAAAAGTTGTTATCACTTGTCGTAATACACTTTGGATGGGTTGACGTTCTGCACGTAGAAGCAAAAGGC [G38T A57C]"
recorded_value = 0.811

[[record]]
sequence_data = "GAGACCGCAACTGAAAAGTTGTTATCCCTTGTCGGAAGACACTTTGGATGGGTTGAAGTTCTGCACGTAGAAGCAAAAGGC [A27C T35G]"
recorded_value = 0.82

[[record]]
sequence_data = "GAGACCGCAACTGAAAAGTTGTTATCACTTGTCTTAAGACACTTTGGATGGGTTGATGTTCTGCACGTAGAAGCAAAAGGC [G34T A57T]"
recorded_value = 0.81

[[record]]
sequence_data = "GAGACCGCAACTGAAAAGTTGTTATCACTTTTCGTAAGACACATTGGATGGGTTGAAGTTCTGCACGTAGAAGCAAAAGGC [G31T T43A]"
recorded_value = 0.778

[[record]]
sequence_data = "GAGACCGCAACTGAAAAGTTGTTGTCACTTGTGGTAAGACACTTTGGATGGGTTGAAGTTCTGCACGTAGAAGCAAAAGGC [A24G C33G]"
recorded_value = 0.785

[[record]]
sequence_data = "GAGACCGCAACTGAAAAGTTGTTATCATTTGTCGTAAAACACTTTGGATGGGTTGAAGTTCTGCACGTAGAAGCAAAAGGC [C28T G38A]"
recorded_value = 0.811

[[record]]
sequence_data = "GAGACCGCAACTGAAAAGTTGTTATCACCTGTCGTAAGACATTTTGGATGGGTTGAAGTTCTGCACGTAGAAGCAAAAGGC [T29C C42T]"
recorded_value = 0.828

[[record]]
sequence_data = "GAGACCGCAACTGAAAAGTTGTTATCACTTGTCGATAGACACTTTGGATGGGTTGAAGTTCTGCACGTAGAAGCAAAAGGC [T35A A36T]"
recorded_value = 0.85

[[record]]
sequence_data = "GAGACCGCAACTGAAAAGTTGTTATCACTTTTCGTAAGACAGTTTGGATGGGTTGAAGTTCTGCACGTAGAAGCAAAAGGC [G31T C42G]"
recorded_value = 0.809

[[record]]
sequence_data = "GAGACCGCAACTGAAAAGTTGTTAGCACTTGTCGTAAGACACTTAGGATGGGTTGAAGTTCTGCACGTAGAAGCAAAAGGC [T25G T45A]"
recorded_value = 0.0602

[[record]]
sequence_data = "GAGACCGCAACTGAAAAGTTGTTATCTCTTGTCATAAGACACTTTGGATGGGTTGAAGTTCTGCACGTAGAAGCAAAAGGC [A27T G34A]"
recorded_value = 0.806

[[record]]
sequence_data = "GAGACCGCAACTGAAAAGTTGTGATCACTTGTCGCAAGACACTTTGGATGGGTTGAAGTTCTGCACGTAGAAGCAAAAGGC [T23G T35C]"
recorded_value = 0.827

[[record]]
sequence_data = "GAGACCGCAACTGAAAAGTTGTTATCACTTGTCGTAAGAGACTTTGGAGGGGTTGAAGTTCTGCACGTAGAAGCAAAAGGC [C40G T49G]"
recorded_value = 0.763

[[record]]
sequence_data = "GAGACCGCAACTGAAAAGTTGTTATGACTTGTCGTTAGACACTTTGGATGGGTTGAAGTTCTGCACGTAGAAGCAAAAGGC [C26G A36T]"
recorded_value = 0.773

[[record]]
sequence_data = "GAGACCGCAACTGAAAAGTTGTTATCACTTGTCGTAAGACACTCAGGATGGGTTGAAGTTCTGCACGTAGAAGCAAAAGGC [T44C T45A]"
recorded_value = 0.768

[[record]]
sequence_data = "GAGACCGCAACTGAAAAGTTGTTAGCCCTTGTCGTAAGACACTTTGGATGGGTTGAAGTTCTGCACGTAGAAGCAAAAGGC [T25G A27C]"
recorded_value = 0.705

[[record]]
sequence_data = "GAGACCGCAACTGAAAAGTTGTTATCAATTGTCGTAAGACACTTTTGATGGGTTGAAGTTCTGCACGTAGAAGCAAAAGGC [C28A G46T]"
recorded_value = 0.803

[[record]]
sequence_data = "GAGACCGCAACTGAAAAGTTGTTATCACTGGTCGTACGACACTTTGGATGGGTTGAAGTTCTGCACGTAGAAGCAAAAGGC [T30G A37C]"
recorded_value = 0.849

[[record]]
sequence_data = "GAGACCGCAACTGAAAAGTTGTTATCACTTGTCGCAGGACACTTTGGATGGGTTGAAGTTCTGCACGTAGAAGCAAAAGGC [T35C A37G]"
recorded_value = 0.881

[[record]]
sequence_data = "GAGACCGCAACTGAAAAGTTGTGATCACGTGTCGTAAGACACTTTGGATGGGTTGAAGTTCTGCACGTAGAAGCAAAAGGC [T23G T29G]"
recorded_value = 0.797

[[record]]
sequence_data = "GAGACCGCAACTGAAAAGTTGTCATCACTTGTCGTAAGACTCTTTGGATGGGTTGAAGTTCTGCACGTAGAAGCAAAAGGC [T23C A41T]"
recorded_value = 0.808

[[record]]
sequence_data = "GAGACCGCAACTGAAAAGTTGTTATCACTTGTCGTAAGACATTTTGGATTGGTTGAAGTTCTGCACGTAGAAGCAAAAGGC [C42T G50T]"
recorded_value = 0.808

[[record]]
sequence_data = "GAGACCGCAACTGAAAAGTTGTTATCACTTGTCGTAAGACACTTTGGATGGGTTGCCGTTCTGCACGTAGAAGCAAAAGGC [A56C A57C]"
recorded_value = 0.447

[[record]]
sequence_data = "GAGACCGCAACTGAAAAGTTGTTATCACTTGTCGGAAGGCACTTTGGATGGGTTGAAGTTCTGCACGTAGAAGCAAAAGGC [T35G A39G]"
recorded_value = 0.799

[[record]]
sequence_data = "GAGACCGCAACTGAAAAGTTGTGATCACTTGTCGTAAGACACTTTGCATGGGTTGAAGTTCTGCACGTAGAAGCAAAAGGC [T23G G47C]"
recorded_value = 0.0263

